Tested on: RAW 264.7 cells
Assay: Quantitative cell-permeability of FITC-labeled aMTD- or rPeptide-fused CRA recombinant proteins (flow cytometry)
Type: cell-based
Settings: cell-permeability of aMTD-fused CRA recombinant protein relative to reference CPP (C: MTD85)
Reported Relative Ratio (Fold) C by item:
Quick reminder: number only, in Fold, skip the unit.

Reference set (3 entries):
>  <substance>
322 (VVAIVLPALAAP; Amino acid Sequence of aMTD322) [compound 322]

>  <Relative Ratio (Fold) C>
5.9

$$$$
>  <substance>
141 (AVIVLPALAVAP; Amino acid Sequence of aMTD141) [compound 141]

>  <Relative Ratio (Fold) C>
3.2

$$$$
>  <substance>
904 (AVLAVVAPVVAP; Amino acid Sequence of aMTD904) [compound 904]

>  <Relative Ratio (Fold) C>
35.8

$$$$

Here is the next item to consider.
Query block: Test system RAW 264.7 cells; read-out Relative Ratio (Fold) C; what value for 726 (LAVAIIAPAVAP; Amino acid Sequence of aMTD726) [compound 726] ?
Result block: 5.6

----------
System: RAW 264.7 cells
Assay: Quantitative cell-permeability of FITC-labeled aMTD- or rPeptide-fused CRA recombinant proteins (flow cytometry)
Type: cell-based
Settings: cell-permeability of aMTD-fused CRA recombinant protein relative to reference CPP (C: MTD85)
measurement name: Relative Ratio (Fold) C
Quick reminder: number only, in Fold, skip the unit.

Reference set (6 entries):
>  <substance>
422 (VVAILAPLLAAP; Amino acid Sequence of aMTD422) [compound 422]

>  <measurement name>
Relative Ratio (Fold) C

>  <reported value>
6.6

$$$$
>  <substance>
543 (LLAALIAPAALP; Amino acid Sequence of aMTD543) [compound 543]

>  <measurement name>
Relative Ratio (Fold) C

>  <reported value>
4.0

$$$$
>  <substance>
484 (LAVVLAAPAIVP; Amino acid Sequence of aMTD484) [compound 484]

>  <measurement name>
Relative Ratio (Fold) C

>  <reported value>
5.3

$$$$
>  <substance>
766 (IVVIAVAPAVAP; Amino acid Sequence of aMTD766) [compound 766]

>  <measurement name>
Relative Ratio (Fold) C

>  <reported value>
4.4

$$$$
>  <substance>
384 (VIVAIAPALLAP; Amino acid Sequence of aMTD384) [compound 384]

>  <measurement name>
Relative Ratio (Fold) C

>  <reported value>
4.7

$$$$
>  <substance>
562 (ALIAAIVPALVP; Amino acid Sequence of aMTD562) [compound 562]

>  <measurement name>
Relative Ratio (Fold) C

>  <reported value>
11.0

$$$$

Query block: Requested field: Relative Ratio (Fold) C. Item: 11 (VVALAPALAALP; Amino acid Sequence of aMTD11) [compound 11]
Result block: 3.2

Query block: Requested field: Relative Ratio (Fold) C. Item: 846 (IAVAVAAPLLVP; Amino acid Sequence of aMTD846) [compound 846]
Result block: 4.0

----------
System: RAW 264.7 cells
Assay: Quantitative cell-permeability of FITC-labeled aMTD- or rPeptide-fused CRA recombinant proteins (flow cytometry)
Type: cell-based
Settings: cell-permeability of aMTD-fused CRA recombinant protein relative to reference CPP (C: MTD85)
Just so you know, the groups by Relative Ratio (Fold) C go like this: range A = under 4 Fold, range B = from 4 Fold up to 5 Fold, range C = 5 Fold and over

>  <substance>
525 (ALAIVVAPVAVP; Amino acid Sequence of aMTD525) [compound 525]

>  <target of assay>
RAW 264.7 cells

>  <label>
range B

$$$$

Query block: Assign a category based on measured Relative Ratio (Fold) C for 302 (LALAPALALLAP; Amino acid Sequence of aMTD302) [compound 302] and give only the class name.
Result block: range A

Query block: Assign a category based on measured Relative Ratio (Fold) C for 505 (AIIIVIAPAAAP; Amino acid Sequence of aMTD505) [compound 505] and give only the class name.
Result block: range B

Query block: Assign a category based on measured Relative Ratio (Fold) C for 875 (AIAIVVPAVAVP; Amino acid Sequence of aMTD875) [compound 875] and give only the class name.
Result block: range B

Query block: Assign a category based on measured Relative Ratio (Fold) C for 881 (AALIVVPAVAVP; Amino acid Sequence of aMTD881) [compound 881] and give only the class name.
Result block: range B

Query block: Assign a category based on measured Relative Ratio (Fold) C for 222 (ALLIAPAAVIAP; Amino acid Sequence of aMTD222) [compound 222] and give only the class name.
Result block: range C

Query block: Assign a category based on measured Relative Ratio (Fold) C for 824 (LIIVAAAPAVAP; Amino acid Sequence of aMTD824) [compound 824] and give only the class name.
Result block: range C

Query block: Assign a category based on measured Relative Ratio (Fold) C for 844 (VVALLAPLIAAP; Amino acid Sequence of aMTD844) [compound 844] and give only the class name.
Result block: range A

----------
Test system: RAW 264.7 cells
Test: Quantitative cell-permeability of FITC-labeled aMTD- or rPeptide-fused CRA recombinant proteins (flow cytometry)
Type: cell-based
Conditions: cell-permeability of aMTD-fused CRA recombinant protein relative to reference CPP (B: MTM12)
Reported Relative Ratio (Fold) B by item:
Quick reminder: number only, in Fold, skip the unit.

Reference set (3 entries):
>  <substance>
897 (AVIVPVAIIAAP; Amino acid Sequence of aMTD897) [compound 897]

>  <target of assay>
RAW 264.7 cells

>  <Relative Ratio (Fold) B>
7.5

$$$$
>  <substance>
484 (LAVVLAAPAIVP; Amino acid Sequence of aMTD484) [compound 484]

>  <target of assay>
RAW 264.7 cells

>  <Relative Ratio (Fold) B>
10.4

$$$$
>  <substance>
881 (AALIVVPAVAVP; Amino acid Sequence of aMTD881) [compound 881]

>  <target of assay>
RAW 264.7 cells

>  <Relative Ratio (Fold) B>
8.5

$$$$

Query block: Requested field: Relative Ratio (Fold) B. Item: 542 (ALALIIVPAVAP; Amino acid Sequence of aMTD542) [compound 542]
Result block: 10.8

Query block: Requested field: Relative Ratio (Fold) B. Item: 365 (AVIVVAPALLAP; Amino acid Sequence of aMTD365) [compound 365]
Result block: 6.2

Query block: Requested field: Relative Ratio (Fold) B. Item: 543 (LLAALIAPAALP; Amino acid Sequence of aMTD543) [compound 543]
Result block: 7.9

Query block: Requested field: Relative Ratio (Fold) B. Item: 302 (LALAPALALLAP; Amino acid Sequence of aMTD302) [compound 302]
Result block: 6.8

Query block: Requested field: Relative Ratio (Fold) B. Item: 602 (VIVALAAPVLAP; Amino acid Sequence of aMTD602) [compound 602]
Result block: 5.8

Query block: Requested field: Relative Ratio (Fold) B. Item: 342 (VIVALAPAVLAP; Amino acid Sequence of aMTD342) [compound 342]
Result block: 8.5

Query block: Requested field: Relative Ratio (Fold) B. Item: 422 (VVAILAPLLAAP; Amino acid Sequence of aMTD422) [compound 422]
Result block: 13.1

Query block: Requested field: Relative Ratio (Fold) B. Item: 11 (VVALAPALAALP; Amino acid Sequence of aMTD11) [compound 11]
Result block: 6.3

Query block: Requested field: Relative Ratio (Fold) B. Item: 824 (LIIVAAAPAVAP; Amino acid Sequence of aMTD824) [compound 824]
Result block: 21.9

Query block: Requested field: Relative Ratio (Fold) B. Item: 403 (AAALVIPAAILP; Amino acid Sequence of aMTD403) [compound 403]
Result block: 16.8

Query block: Requested field: Relative Ratio (Fold) B. Item: 852 (VLAVAAPAVLLP; Amino acid Sequence of aMTD852) [compound 852]
Result block: 56.6

Query block: Requested field: Relative Ratio (Fold) B. Item: 767 (IVVAAVVPALAP; Amino acid Sequence of aMTD767) [compound 767]
Result block: 5.0

Query block: Requested field: Relative Ratio (Fold) B. Item: 622 (ALIVLAAPVAVP; Amino acid Sequence of aMTD622) [compound 622]
Result block: 7.1

Query block: Requested field: Relative Ratio (Fold) B. Item: 465 (IAAVIVPVAALP; Amino acid Sequence of aMTD465) [compound 465]
Result block: 4.9

Query block: Requested field: Relative Ratio (Fold) B. Item: 225 (VAALLPAAAVLP; Amino acid Sequence of aMTD225) [compound 225]
Result block: 12.2

Query block: Requested field: Relative Ratio (Fold) B. Item: 964 (ALLVIAPAIAVP; Amino acid Sequence of aMTD864) [compound 964]
Result block: 4.8

Query block: Requested field: Relative Ratio (Fold) B. Item: 482 (ILAVAAIPVAVP; Amino acid Sequence of aMTD482) [compound 482]
Result block: 10.6

Query block: Requested field: Relative Ratio (Fold) B. Item: 831 (IIVAVAPAAIVP; Amino acid Sequence of aMTD831) [compound 831]
Result block: 31.0

Query block: Requested field: Relative Ratio (Fold) B. Item: 827 (IAAVLAAPALVP; Amino acid Sequence of aMTD827) [compound 827]
Result block: 28.8

Query block: Requested field: Relative Ratio (Fold) B. Item: 601 (AAILIAVPIAAP; Amino acid Sequence of aMTD601) [compound 601]
Result block: 17.9

Query block: Requested field: Relative Ratio (Fold) B. Item: 461 (IAAVIVPAVALP; Amino acid Sequence of aMTD461) [compound 461]
Result block: 12.7
